Would you kindly list useful antacid capacity between pH 4.0 and pH 7.0 for each of these compounds?
- particulars: standard acid-base titration curve, FIG. 1

Here's what some known entries look like.
INSERT INTO assay_data (compound, recorded_result) VALUES
  ('O=C([O-])CC(O)(CC(=O)[O-])C(=O)[O-].[Na+].[Na+].[Na+] [sodium citrate]', '57.70%'),
  ('CC(=O)[O-].[Na+] [sodium acetate]', '68.75%'),
  ('O=C([O-])CCCCC(=O)[O-].[Na+].[Na+] [sodium adipate]', '72.50%');

Lookup: useful antacid capacity between pH 4.0 and pH 7.0 for O=C([O-])CC(O)C(=O)[O-].[Na+].[Na+] (stereo not shown) [sodium malate] ?
Found: 41.25%
